Ref: ChEMBL document CHEMBL5584237

- procedure.summary: Selectivity index, ratio of IC50 for human WI-38 cells to IC50 for human MDA-MB-231 cells
- Assay type: toxicity
- details: WI-38 cells and MDA-MB-231 cells, read-out: Ratio IC50

| molecular.string | selectivity ratio |
| --- | --- |
| CCN1CCN(c2ccc(NC(=O)Nc3ccc(-c4cc(C(=O)NC(C)C)c5ncccc5n4)cc3)cc2C(F)(F)F)CC1 | 10.1 |

====

- procedure.summary: Selectivity index, ratio of IC50 for human WI-38 cells to IC50 for human MDA-MB-468 cells
- Type: toxicity
- details: WI-38 cells and MDA-MB-468 cells, read-out: Ratio IC50

| molecular.string | selectivity ratio |
| --- | --- |
| CCN1CCN(c2ccc(NC(=O)Nc3ccc(-c4cc(C(=O)NC(C)C)c5ncccc5n4)cc3)cc2C(F)(F)F)CC1 | 10.1 |
